Target: Serotonin 5-HT7A (Homo sapiens, UniProt P34969)
Sequence (P34969 1-445 isoform P34969-2): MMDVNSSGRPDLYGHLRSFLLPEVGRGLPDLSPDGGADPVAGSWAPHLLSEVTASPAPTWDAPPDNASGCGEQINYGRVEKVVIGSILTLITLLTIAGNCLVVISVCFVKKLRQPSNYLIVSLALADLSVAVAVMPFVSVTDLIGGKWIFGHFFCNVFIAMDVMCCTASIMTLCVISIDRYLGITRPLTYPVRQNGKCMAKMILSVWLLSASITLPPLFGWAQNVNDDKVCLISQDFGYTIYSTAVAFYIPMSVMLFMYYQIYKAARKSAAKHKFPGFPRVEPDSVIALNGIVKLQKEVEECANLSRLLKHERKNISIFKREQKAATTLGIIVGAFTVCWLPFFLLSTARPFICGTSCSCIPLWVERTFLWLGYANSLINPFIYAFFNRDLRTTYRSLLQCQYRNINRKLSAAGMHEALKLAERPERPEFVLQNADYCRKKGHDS
Assay: PDSP binding screen
Settings: read-out: Ki (nM) or % inhibition at 10 µM: 5-HT7A
inhibition at 10 µM: recorded values

Example results:
> print(dat)
                                   molecule  result
1  CCN(CCCNC(=O)c1cc2ccccc2n1C)CCNC(=O)c1cc(Br)cc(OC)c1OC [21j]   < 50%
2  CCN(CCCNC(=O)c1ccc(-c2ccncc2)cc1)CCNC(=O)c1cc(Br)cc(OC)c1OC [21c]   < 50%

Now look at this one.
Name the recorded inhibition at 10 µM of the item CCN(CCCNC(=O)c1cc2ccccc2[nH]1)CCNC(=O)c1cc(Br)cc(OC)c1OC [21d] in your answer. < 50%

====

Target: Dopamine D2 (Homo sapiens, UniProt P14416)
Sequence (P14416 whole entry): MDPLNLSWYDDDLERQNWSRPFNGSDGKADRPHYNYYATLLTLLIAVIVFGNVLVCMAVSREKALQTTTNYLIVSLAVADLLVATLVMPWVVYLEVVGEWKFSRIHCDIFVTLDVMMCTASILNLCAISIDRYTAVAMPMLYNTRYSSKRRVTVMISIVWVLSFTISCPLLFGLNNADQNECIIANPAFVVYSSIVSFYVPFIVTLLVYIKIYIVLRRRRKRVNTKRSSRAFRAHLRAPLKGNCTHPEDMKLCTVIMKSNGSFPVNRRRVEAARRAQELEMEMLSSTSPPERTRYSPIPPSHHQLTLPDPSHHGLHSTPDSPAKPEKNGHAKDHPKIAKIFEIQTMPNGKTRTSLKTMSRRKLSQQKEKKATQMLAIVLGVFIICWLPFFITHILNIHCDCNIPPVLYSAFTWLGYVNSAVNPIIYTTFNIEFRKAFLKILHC
Experiment: PDSP binding screen
metric: Ki
Lab note: write values as number then unit, every time.

> print(dat)
                                   molecule                                    system  metric    result
1  CCN(CCCNC(=O)c1ccc(-c2cccs2)cc1)CCNC(=O)c1cc(Br)cc(OC)c1OC  Dopamine D2 (Homo sapiens, UniProt P14416)      Ki  0.232 µM
2  CCN(CCCNC(=O)c1ccc(-c2ccsc2)cc1)CCNC(=O)c1cc(Br)cc(OC)c1OC [21g]  Dopamine D2 (Homo sapiens, UniProt P14416)      Ki   0.17 µM
3  CCN(CCCNC(=O)c1cc2ccccc2n1C)CCNC(=O)c1cc(Br)cc(OC)c1OC [21j]  Dopamine D2 (Homo sapiens, UniProt P14416)      Ki  0.076 µM
4  CCN(CCCNC(=O)c1ccc2ccccc2c1)CCNC(=O)c1cc(Br)cc(OC)c1OC [21a]  Dopamine D2 (Homo sapiens, UniProt P14416)      Ki  0.216 µM

Turning now to a further molecule:
Would you please give the reported Ki of CCN(CCCNC(=O)c1ccc(-c2ccncc2)cc1)CCNC(=O)c1cc(Br)cc(OC)c1OC [21c] with Dopamine D2 (Homo sapiens, UniProt P14416)? 0.074 µM

====

Target: Serotonin 5-HT1A (Homo sapiens)
Sequence (P08908 whole entry): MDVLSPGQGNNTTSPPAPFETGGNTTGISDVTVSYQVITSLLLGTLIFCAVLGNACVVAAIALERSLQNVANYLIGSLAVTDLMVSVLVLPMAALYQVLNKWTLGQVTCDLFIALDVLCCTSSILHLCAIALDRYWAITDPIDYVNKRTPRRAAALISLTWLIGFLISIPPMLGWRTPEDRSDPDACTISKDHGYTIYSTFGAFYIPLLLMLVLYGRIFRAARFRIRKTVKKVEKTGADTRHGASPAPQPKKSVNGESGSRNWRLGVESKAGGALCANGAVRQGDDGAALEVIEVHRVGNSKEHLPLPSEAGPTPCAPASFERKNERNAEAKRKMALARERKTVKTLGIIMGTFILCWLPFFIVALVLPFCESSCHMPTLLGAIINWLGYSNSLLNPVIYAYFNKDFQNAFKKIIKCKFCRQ
metric: Ki (µM)
Record the value in µM, omitting the unit from your answer.

> print(dat)
                                   compound  metric  result.number
1  CCN(CCCNC(=O)c1ccc2ccccc2c1)CCNC(=O)c1cc(Br)cc(OC)c1OC [21a]      Ki          0.971
2  CCN(CCCNC(=O)c1cc2ccccc2n1C)CCNC(=O)c1cc(Br)cc(OC)c1OC [21j]      Ki          0.961

Kindly consider the entry below.
# assay system Serotonin 5-HT1A (Homo sapiens): give Ki of CCN(CCCNC(=O)c1cc2ccccc2[nH]1)CCNC(=O)c1cc(Br)cc(OC)c1OC [21d] 0.692

====

Biological target: UniProtKB P35462
Sequence (P35462 whole entry): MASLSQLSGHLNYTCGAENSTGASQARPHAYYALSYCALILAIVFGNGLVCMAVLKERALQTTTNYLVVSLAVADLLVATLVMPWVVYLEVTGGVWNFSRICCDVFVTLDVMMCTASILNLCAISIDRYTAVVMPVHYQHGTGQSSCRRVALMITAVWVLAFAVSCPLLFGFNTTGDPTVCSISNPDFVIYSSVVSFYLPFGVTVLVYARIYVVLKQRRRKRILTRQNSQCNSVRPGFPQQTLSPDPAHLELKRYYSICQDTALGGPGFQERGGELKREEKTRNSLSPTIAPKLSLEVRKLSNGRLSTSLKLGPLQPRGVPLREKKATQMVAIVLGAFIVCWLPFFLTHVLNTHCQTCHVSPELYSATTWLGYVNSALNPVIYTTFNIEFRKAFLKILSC
Assay: β-arrestin recruitment assay (antagonist mode, competition with dopamine)
Type: cell-based
Design: expressed in transfected cells
Conditions: potency for D3 receptors, CHO-K1 cells, vs 30 nM (EC80) dopamine; mean ± SD, three experiments; read-out: IC50
# strict inequality: IC50 < 9 nM yields yes, everything else yields no

Hello, is IC50 of the following molecule strictly smaller than 9 nM? CCCN(CCCNC(=O)c1ccc(-c2cccs2)cc1)CCNC(=O)c1cc(Br)cc(OC)c1OC [20a] no

Regarding CCN(CCCCNC(=O)c1ccc(-c2cccs2)cc1)CCNC(=O)c1cc(Br)cc(OC)c1OC [9b] , kindly confirm whether its IC50 is beneath 9 nM. no

Here's an entry: C=CCN(CCCNC(=O)c1ccc(-c2cccs2)cc1)CCNC(=O)c1cc(Br)cc(OC)c1OC [20b] . Is its IC50 below 9 nM? no

Given the entry CCN(CCCNC(=O)c1cc2ccccc2[nH]1)CCNC(=O)c1cc(Br)cc(OC)c1OC [21d] , would its reported IC50 be below 9 nM? no

State whether 9 nM exceeds IC50 recorded for CCN(CCCNC(=O)c1ccsc1)CCNC(=O)c1cc(Br)cc(OC)c1OC [21i] . yes

Please determine if CCN(CCCNC(=O)c1ccc(-c2ccncc2)cc1)CCNC(=O)c1cc(Br)cc(OC)c1OC [21c] is below 9 nM in terms of IC50. yes

Just wondering, is IC50 of CCN(CCCCCN(C)C)CCNC(=O)c1cc(CCCF)cc(OC)c1OC [6b] below 9 nM? no

Strictly below 9 nM: is that where IC50 of CCN(CCCNC(=O)c1cc2ccccc2n1C)CCNC(=O)c1cc(Br)cc(OC)c1OC [21j] sits? yes

Is it true that IC50 reported for CCN(CCCCN(C)C)CCNC(=O)c1cc(CCCF)cc(OC)c1OC [6a] is less than 9 nM? no

Threshold test, IC50 < 9 nM: CCN(CCCCN(C)C)CCNC(=O)c1cc(Br)cc(OC)c1OC [6c] no

Is IC50 of CCN(CCCNC(=O)c1ccnc2ccccc12)CCNC(=O)c1cc(Br)cc(OC)c1OC [21b] strictly below 9 nM? no
